Item-by-item account of M07e cell proliferation activity (%) at 4.1 nM
# system name: T1, IL-2Rβ/γ on M07e cells (human, UniProt P14784 27-551; P31785 23-369)
# T1 sequence (looked up) 1: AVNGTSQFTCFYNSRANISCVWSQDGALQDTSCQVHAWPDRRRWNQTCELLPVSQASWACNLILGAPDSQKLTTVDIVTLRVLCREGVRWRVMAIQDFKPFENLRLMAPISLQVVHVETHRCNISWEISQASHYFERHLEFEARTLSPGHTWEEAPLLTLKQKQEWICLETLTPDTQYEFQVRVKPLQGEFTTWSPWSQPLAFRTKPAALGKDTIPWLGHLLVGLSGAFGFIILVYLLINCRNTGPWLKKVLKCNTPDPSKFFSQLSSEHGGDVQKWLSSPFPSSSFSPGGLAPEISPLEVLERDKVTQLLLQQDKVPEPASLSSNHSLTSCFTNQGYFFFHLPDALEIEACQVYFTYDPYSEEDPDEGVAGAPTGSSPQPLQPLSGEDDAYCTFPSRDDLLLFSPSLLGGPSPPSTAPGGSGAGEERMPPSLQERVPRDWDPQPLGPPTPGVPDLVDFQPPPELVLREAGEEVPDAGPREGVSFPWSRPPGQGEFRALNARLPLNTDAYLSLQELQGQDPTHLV
# T1 sequence (looked up) 2: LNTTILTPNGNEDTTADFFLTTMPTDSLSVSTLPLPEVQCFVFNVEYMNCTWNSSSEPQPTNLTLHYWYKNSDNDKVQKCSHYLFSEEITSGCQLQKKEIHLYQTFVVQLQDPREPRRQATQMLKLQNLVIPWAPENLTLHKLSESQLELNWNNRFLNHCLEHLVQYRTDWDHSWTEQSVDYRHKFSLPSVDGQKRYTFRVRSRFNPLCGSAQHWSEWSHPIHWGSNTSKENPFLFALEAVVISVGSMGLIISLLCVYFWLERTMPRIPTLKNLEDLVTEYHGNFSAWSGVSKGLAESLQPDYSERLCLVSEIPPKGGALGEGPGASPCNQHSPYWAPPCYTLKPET
# protocol notes: cell-based or functional assay
Please give a number only; it is taken to be in %.

Guide cases for M07e cell proliferation activity (%) at 4.1 nM, answers given:
{"binder": "A-N88D (Fc fusion, also called PD-1-IL-2v (N88D); not shown: IgG1 hinge (C220S) + Fc Knob chain (L234A, L235A, S354C, T366W, EU); D356/L358 or E356/M358 ver; IgG1 hinge (C220S) + Fc Hole chain (L234A, L235A, Y349C, T366S, L368A, Y407V; may have H435R, Y436F; EU)) chain (part 1 of 2): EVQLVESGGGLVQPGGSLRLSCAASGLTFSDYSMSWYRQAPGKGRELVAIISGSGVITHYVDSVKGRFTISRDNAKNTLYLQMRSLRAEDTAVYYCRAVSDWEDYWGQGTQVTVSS chain (part 2 of 2): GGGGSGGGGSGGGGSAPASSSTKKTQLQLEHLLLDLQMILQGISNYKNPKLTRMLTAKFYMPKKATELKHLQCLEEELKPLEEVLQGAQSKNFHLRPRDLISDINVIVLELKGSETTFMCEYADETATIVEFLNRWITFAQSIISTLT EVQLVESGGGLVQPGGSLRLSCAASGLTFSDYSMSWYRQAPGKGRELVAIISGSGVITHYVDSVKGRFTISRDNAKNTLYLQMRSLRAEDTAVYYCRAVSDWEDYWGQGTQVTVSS", "unit annotation": "%", "value measured": -1.5}
{"binder": "A-PC (Fc fusion, also called positive control molecule A-PC; PD-1-IL-2v; not shown: IgG1 hinge (C220S) + Fc Knob chain (L234A, L235A, S354C, T366W, EU); D356/L358 or E356/M358 ver; IgG1 hinge (C220S) + Fc Hole chain (L234A, L235A, Y349C, T366S, L368A, Y407V; may have H435R, Y436F; EU)) chain (part 1 of 2): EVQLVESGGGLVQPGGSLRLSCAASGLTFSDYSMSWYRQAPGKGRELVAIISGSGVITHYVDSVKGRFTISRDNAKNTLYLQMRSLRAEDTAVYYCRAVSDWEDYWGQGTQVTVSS chain (part 2 of 2): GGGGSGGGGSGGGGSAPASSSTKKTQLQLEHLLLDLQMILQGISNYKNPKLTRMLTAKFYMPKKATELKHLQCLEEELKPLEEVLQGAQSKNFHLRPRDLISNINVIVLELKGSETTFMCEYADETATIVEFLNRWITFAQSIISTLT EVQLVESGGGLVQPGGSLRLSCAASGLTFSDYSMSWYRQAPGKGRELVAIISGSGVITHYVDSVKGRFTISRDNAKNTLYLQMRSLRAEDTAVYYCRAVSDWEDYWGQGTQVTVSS", "unit annotation": "%", "value measured": 28.1}

Lab note: next binder to report on.
Data request: For the binder shown here, A-D20A (Fc fusion, also called PD-1-IL-2v (D20A); not shown: IgG1 hinge (C220S) + Fc Knob chain (L234A, L235A, S354C, T366W, EU); D356/L358 or E356/M358 ver; IgG1 hinge (C220S) + Fc Hole chain (L234A, L235A, Y349C, T366S, L368A, Y407V; may have H435R, Y436F; EU)) chain (part 1 of 2): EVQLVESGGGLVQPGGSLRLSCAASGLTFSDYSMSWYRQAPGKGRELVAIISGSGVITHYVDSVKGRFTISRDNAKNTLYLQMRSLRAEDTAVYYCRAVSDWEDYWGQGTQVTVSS chain (part 2 of 2): GGGGSGGGGSGGGGSAPASSSTKKTQLQLEHLLLALQMILQGISNYKNPKLTRMLTAKFYMPKKATELKHLQCLEEELKPLEEVLQGAQSKNFHLRPRDLISNINVIVLELKGSETTFMCEYADETATIVEFLNRWITFAQSIISTLT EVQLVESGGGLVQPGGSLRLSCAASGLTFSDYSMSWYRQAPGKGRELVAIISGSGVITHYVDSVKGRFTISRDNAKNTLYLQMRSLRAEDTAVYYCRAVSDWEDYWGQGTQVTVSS , give the reported M07e cell proliferation activity (%) at 4.1 nM.
Data returned: -1.6
